# ASSAY: Stability in cryopreserved hepatocytes, human
As shown below, each of these molecules has a reported Trep Concentration (μM) 0 min value.
PROPERTY_NAME: Trep Concentration (μM) 0 min

{"columns": ["MOLECULE", "OBS_VALUE"],
 "data": [
  ["CCCCCC(CCC1C(O)CC2Cc3c(cccc3OCC(=O)O)CC21)OCc1oc(=O)oc1C (centres unmarked)", "0.0425 µM"],
  ["CCCCCC(CCC1C(O)CC2Cc3c(cccc3OCC(=O)O)CC21)OC(=O)c1cccc(O)c1 (centres unmarked)", "0 µM"],
  ["CCCCCC(CCC1C(O)CC2Cc3c(cccc3OCC(=O)O)CC21)OC(=O)N1CCC(O)CC1 (centres unmarked)", "0 µM"],
  ["CCCCCC(CCC1C(O)CC2Cc3c(cccc3OCC(=O)O)CC21)OC(=O)c1ccc(C(F)(F)F)cc1 (centres unmarked)", "0 µM"],
  ["CCCCCC(CCC1C(O)CC2Cc3c(cccc3OCC(=O)O)CC21)OC(=O)C1CCCN1 (centres unmarked)", "0 µM"],
  ["CCCCCC(CCC1C(O)CC2Cc3c(cccc3OCC(=O)O)CC21)Oc1ccccc1C(=O)O (centres unmarked)", "0 µM"],
  ["CCCCCC(CCC1C(O)CC2Cc3c(cccc3OCC(=O)O)CC21)OC(=O)C(C)(C)C (centres unmarked)", "0 µM"],
  ["CCCCCC(CCC1C(O)CC2Cc3c(cccc3OCC(=O)O)CC21)OC (centres unmarked)", "0 µM"],
  ["CCCCCC(CCC1C(O)CC2Cc3c(cccc3OCC(=O)O)CC21)OC(=O)CO (centres unmarked)", "0.0377 µM"],
  ["CCCCCC(CCC1C(O)CC2Cc3c(cccc3OCC(=O)O)CC21)OC(=O)COc1ccccc1 (centres unmarked)", "0.0193 µM"],
  ["CCCCCC(CCC1C(O)CC2Cc3c(cccc3OCC(=O)O)CC21)OC(=O)COc1ccc(OC(F)(F)F)cc1 (centres unmarked)", "0.0116 µM"],
  ["CCCCCC(CCC1C(OC(=O)CC)CC2Cc3c(cccc3OCC(=O)O)CC21)OC(=O)CC (centres unmarked) [Prodrug LXX, treprostinil dipropionate]", "0.00542 µM"],
  ["CCCCC[C@H]1CC[C@@H]2[C@H]3Cc4cccc(OCC(=O)O)c4C[C@H]3C[C@H]2OC(=O)O1", "0.041 µM"],
  ["CCCCCC(CCC1C(O)CC2Cc3c(cccc3OCC(=O)O)CC21)OCC (centres unmarked)", "0 µM"],
  ["CCCCCC(CCC1C(O)CC2Cc3c(cccc3OCC(=O)O)CC21)OC(C)=O (centres unmarked)", "0.00744 µM"],
  ["CCCCCC(CCC1C(O)CC2Cc3c(cccc3OCC(=O)O)CC21)OCCN1CCOCC1 (centres unmarked)", "0.00177 µM"],
  ["CCCCCC(CCC1C(O)CC2Cc3c(cccc3OCC(=O)O)CC21)OC(=O)c1ccc(O)c(O)c1 (centres unmarked)", "0 µM"]
]}
